Attribution: the supplement of paper PMC9170038

- System: MS2 coat protein
- METHOD_NOTES: apparent KD of MS2 coat protein; higher = weaker reporter binding
- RECORDED_CONDITIONS: Eterna round: R101; input ligand: FMN 200 uM
Recorded apparent KD of MS2 coat protein by entry
READOUT_KIND: apparent KD of MS2 coat protein (nM)

# SEQUENCE_RECORD, ASSAY_RESULT
records = [
    ("AAUAAUUCUCAAGGAUAUGACUCCGAAACGGAGUCAGAAGGUGAGGAUCACCCACCUAGCUCAGCGUCGAAAGACGCUGAGCAA [#SharedSequence ExNG1 - 35] (puzzle (switch architecture): Exclusion NG 1)", 314),
    ("AAAUAAACCUUAGGAUAUGACUCCGAAACGGAGUCAGAAGGGAGGAUCACCCUCUUCAGCUCAGCGUCGAAAGACGCUGAGCAA [#SharedSequence ExNG1 - 21] (puzzle (switch architecture): Exclusion NG 1)", 63.3),
    ("GUGGUUGUCGUAGGAUAUGUAGGAUAUUCCUACAUGAGGAUCACCCAUGUUCGCAUGGAAGAAGGACAGAAGGACGAUGACCAG [salish99_SSNG2_011 #endbits investigation] (puzzle (switch architecture): Same State NG 2)", 9.85),
    ("ACACGUCGUGAGAAGGAGGAUCACCCUUUCGAAAGAAAUAGCCACCGUGAAAACGGUGGCAGAUUUUAGGAUAUCACGACGUGA [#SharedSequence - IExNG2: 9] (puzzle (switch architecture): Inverted Exclusion NG 2)", 113),
    ("CGCUAUGACAUGAGGAUCACCCAUGUAUACAUGGGAAUGACGUAGGAUAUGCAGAAGAUUAAAGUGCAGAAGGACGGCUUUGCG [JR #DistanceClose #Static #NP SSNG3 Sub063] (puzzle (switch architecture): Same State NG 3)", 214),
    ("GCCAUCGCAUGAGGAUAUGCUCCCGUUUCGGGAGCAGAAGGCAUGUCAUAAGACAUGAGGAUCACCCAUGUAGUUAAGAUGGCA (puzzle (switch architecture): Same State NG 1)", 11.7),
    ("GGACGUCACAUUAACAUGAGGAUCACCCAUGUCAAAAGACAUGAGGAUAUGGAUCCUAAUUGGAUCCAGAAGGCAUGGACGUCC [#HiddenHairpinInALoop - Fiskers NG3ss - 39] (puzzle (switch architecture): Same State NG 3)", 14.8),
    ("AAAUGUACGAAGAAGGCUCUGCCACUGGCCGAGAGAGGAUAUUCACACAUGAGGAUCACCCAUGUCGAACAAAGUACACAGAGC [EternaBot1858] (puzzle (switch architecture): Inverted Same State NG 1)", 7.05),
    ("AAACUGCCACAUGAGGAUCACCCAUGUAAAUAAAGUAUUUGAAGAAGGGCGAUAGCAAAGCUAUCGCAGGAUAUUCUCAGGCAG [#GuReductionToAU - jl-sng2-2.35] (puzzle (switch architecture): Inverted Same State NG 3)", 8.34),
    ("AAAUAAAUUGAAGGAUAUCAGGGUGCACCUCAGUAAAACUGAGGUGCACCCUGAGAAGGUCGAGGAUCACCCGACCUAAAUAAA [#SharedSequence SLExNG1: 4-2] (puzzle (switch architecture): Small Loop Exclusion NG 1)", 8.37),
    ("CCUGCACCUCAAGGAUAUCCAGUCGAAACGACUGGAGAAGGUGAGGAUCACCCAUCUAGCCUGACGAAAGUCAGGCAUGCAGGA [#SharedSequence - ExNG1-5] (puzzle (switch architecture): Exclusion NG 1)", 848),
    ("AGAGCUGCUCAGAAGGAGGAUCACCCUUUCGAAAGAAAUACGGAGGCUGAAAAGCCUCCGAAAUCCUAGGAUAUGAGCAGCUCA [#SharedSequence - IExNG2: 3] (puzzle (switch architecture): Inverted Exclusion NG 2)", 7.43),
]
